Target Desc: T1, human GIPR (human), P48546
T1 chain: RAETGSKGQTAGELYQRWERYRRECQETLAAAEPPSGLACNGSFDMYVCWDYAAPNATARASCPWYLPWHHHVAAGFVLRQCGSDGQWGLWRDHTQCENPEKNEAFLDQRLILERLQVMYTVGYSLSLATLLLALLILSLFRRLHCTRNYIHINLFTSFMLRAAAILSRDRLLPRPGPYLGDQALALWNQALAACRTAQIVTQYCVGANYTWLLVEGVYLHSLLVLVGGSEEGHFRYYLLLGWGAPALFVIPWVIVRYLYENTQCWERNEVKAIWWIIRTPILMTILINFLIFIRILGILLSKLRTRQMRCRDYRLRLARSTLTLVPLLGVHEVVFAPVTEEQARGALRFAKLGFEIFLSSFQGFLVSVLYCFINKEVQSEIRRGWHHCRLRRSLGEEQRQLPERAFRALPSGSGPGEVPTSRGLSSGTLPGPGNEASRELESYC
Assay Info: [125I]GIP competition, human GIPR VLP
Non-standard residues stand in square brackets, D forms with d. Groups on a side chain read outwards from the residue. Primed or numbered codes have the meaning given here. No end group written: not given here. *: point of attachment. C20 diacid = O=C(O)CCCCCCCCCCCCCCCCCCC(=O)*; Iva = CC[C@](C)(N)C(=O)O; Aib = CC(C)(N)C(=O)O
binders and their reported IC50
Just the number please, in nM, no unit attached.

Y[Aib]EGTFISDYSIALDRK([PEG(2)-C20 diacid])AQQNFVNW[Iva]LAQRPSSGAPPPS (not fully specified (C-terminus); ends and bridges not checked) [Compound 408] ... 84

--- query ---
Ask | Given Y[Aib]EGTFISDYSIAK([PEG(2)-C20 diacid])DRIAQQNFVNW[Iva]LAQR (ends and bridges not checked) [Compound 389] , state its recorded IC50.
Reply | 19
